- protocolSummary: Pharmacokinetic study after single i.v. and p.o. administration in male SD rats
- Type: in vivo
- conditionNotes: male, SD, plasma; rat, po, 20 mg/kg
quantity: bioavailability (%)

- CN1CCC[C@H](N)C(=O)N2C[C@@H](OCc3ccccc3)C[C@H]2COc2cccc(c2)C1=O [Ex. 568]: 21.6

a. CN1CCC[C@H](NC(=O)CC(C)(C)C)C(=O)N2C[C@@H](O)C[C@H]2COc2cccc(c2)C1=O [Ex. 571]
b. CN1CCC[C@H](N)C(=O)N2C[C@@H](Oc3ccccc3)C[C@H]2COc2cccc(c2)C1=O [Ex. 561]
Which value of bioavailability is smaller, the one for a or the one for b ? Label of pick, please.
b

====

- protocolSummary: in vitro
- Assay type: in vitro ADME, human
- conditionNotes: human, plasma, 4 h, 10 µM
quantity: Plasma Stability 240 min hum [% remain.] (% remain.)

• CN1CCC[C@H](NC(=O)OCc2ccccc2)C(=O)N2C[C@@H](NC(=O)Cc3ccc4ccccc4c3)C[C@H]2COc2cccc(c2)C1=O [Ex. 184] = 66
• CN1CCC[C@H](NC(=O)Cc2ccccc2)C(=O)N[C@H]2CN[C@H](COc3ccc(F)cc3C1=O)C2 [Ex. 406] = 75
• CN1CCC(NC(=O)OCc2ccccc2)C(=O)N2CC(NC(=O)Cc3ccc4ccccc4c3)CC2COc2cccc(c2)C1=O (stereo not drawn) [Ex. 168] = 85
• CN1CCC[C@H](N)C(=O)N2C[C@@H](OCc3ccccc3)C[C@H]2COc2cccc(c2)C1=O [Ex. 568] = 97
• CN1CCC[C@H](N)C(=O)N2C[C@@H](OCc3ccc(-c4cccnc4)cc3)C[C@H]2COc2cccc(c2)C1=O [Ex. 578] = 100

I. CN1CC(=O)N2C[C@@H](NC(=O)Cc3c[nH]c4ccccc34)C[C@H]2COc2ccc(F)cc2C(=O)N(C)[C@H](C(=O)NCCc2c[nH]c3ccccc23)CCC1=O [Ex. 12]
II. CN1CCC[C@H](NS(=O)(=O)c2ccc(-c3ccccc3)cc2)C(=O)N2C[C@@H](NC(=O)Cc3ccc4ccccc4c3)C[C@H]2COc2cccc(c2)C1=O [Ex. 527]
Which value of Plasma Stability 240 min hum [% remain.] is smaller, the one for I or the one for II ? Label of pick, please.
II

P. CN1CCC[C@H](N)C(=O)N2C[C@@H](OCc3ccc(-c4cncnc4)cc3)C[C@H]2COc2cccc(c2)C1=O [Ex. 577]
Q. CN(C)CCNC(=O)[C@@H]1COCC(=O)N2C[C@@H](NC(=O)Cc3ccc4ccccc4c3)C[C@H]2COc2cccc(c2)C(=O)N1C [Ex. 374]
Quick check, higher Plasma Stability 240 min hum [% remain.] between P and Q ? Label of pick, please.
P
(P: 87 % remain., Q: 57 % remain.)

====

- protocolSummary: Pharmacokinetic study after single i.v. and p.o. administration in male SD rats
- Format: in vivo
- conditionNotes: male, SD, plasma; rat, po, 20 mg/kg
quantity: Tmax (min)

* CN1CCC[C@H](N)C(=O)N2C[C@@H](OCc3ccccc3)C[C@H]2COc2cccc(c2)C1=O [Ex. 568] | 15
* CN1CCC[C@H](N)C(=O)N2C[C@@H](Oc3ccccc3)C[C@H]2COc2cccc(c2)C1=O [Ex. 561] | 15
* CN1CCC[C@H](NC(=O)CC(C)(C)C)C(=O)N2C[C@@H](O)C[C@H]2COc2cccc(c2)C1=O [Ex. 571] | 15
